target entity: TrkA (Homo sapiens, UniProt P04629)
Sequence (P04629 33-796): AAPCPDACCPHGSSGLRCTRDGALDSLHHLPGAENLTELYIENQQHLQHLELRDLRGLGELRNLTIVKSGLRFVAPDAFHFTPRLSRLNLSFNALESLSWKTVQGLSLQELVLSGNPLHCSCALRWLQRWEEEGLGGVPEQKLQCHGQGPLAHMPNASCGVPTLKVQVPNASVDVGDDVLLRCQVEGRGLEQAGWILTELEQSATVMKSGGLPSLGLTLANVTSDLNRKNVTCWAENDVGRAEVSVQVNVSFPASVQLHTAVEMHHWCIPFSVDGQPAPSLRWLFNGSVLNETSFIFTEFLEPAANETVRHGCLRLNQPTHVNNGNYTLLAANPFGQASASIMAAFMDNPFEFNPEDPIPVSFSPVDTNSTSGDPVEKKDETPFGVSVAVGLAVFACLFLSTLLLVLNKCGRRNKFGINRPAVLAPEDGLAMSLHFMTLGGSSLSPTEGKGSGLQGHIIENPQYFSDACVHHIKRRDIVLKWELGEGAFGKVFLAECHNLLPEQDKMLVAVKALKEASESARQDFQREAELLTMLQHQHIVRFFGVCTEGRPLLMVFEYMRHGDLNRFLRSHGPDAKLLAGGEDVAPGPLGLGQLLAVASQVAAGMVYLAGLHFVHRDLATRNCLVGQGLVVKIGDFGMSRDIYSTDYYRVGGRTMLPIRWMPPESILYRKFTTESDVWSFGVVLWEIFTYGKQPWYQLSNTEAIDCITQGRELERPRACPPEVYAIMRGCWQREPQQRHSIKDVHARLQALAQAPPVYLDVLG
endpoint name: IC50 (nM)

>>> experimental_value("CN1C[C@@H]2Oc3ncc(F)cc3[C@H]3CCON3c3ccn4ncc(c4n3)C(=O)N[C@@H]2C1 [WX009A]")
85.1
>>> experimental_value("CCN1CC[C@H]2NC(=O)c3cnn4ccc(nc34)N3OCC[C@H]3c3cc(F)cnc3O[C@H]2C1 [WX016B]")
220
>>> experimental_value("O=C1N[C@@H]2COC[C@@H]2Oc2ncc(F)cc2[C@H]2CCON2c2ccn3ncc1c3n2 [WX008A]")
1.61
>>> experimental_value("O=C1NC2(CC2)COc2ccc(F)cc2[C@H]2CCON2c2ccn3ncc1c3n2 (single isomer, unassigned) [WX003A]")
2.66
>>> experimental_value("O=C1NC2(CC2)COc2ncc(F)cc2[C@H]2CCON2c2ccn3ncc1c3n2 [WX002A]")
2.07

---

target entity: TrkA-G595R (Homo sapiens, UniProt P04629, G595R)
Sequence (P04629 33-796 G595R): as the sequence (P04629 33-796) above, with G563R counted along it
assay summary: Kinase inhibitory activity (33P-ATP filter binding, Reaction Biology Corp.)
recorded conditions: read-out: The half maximal inhibitory concentration IC50 on the kinases, TrkA-G595R
pIC50: −log10 of the molar value.
endpoint name: pIC50

>>> experimental_value("C[C@@H]1COc2ncc(F)cc2[C@H]2CCON2c2ccn3ncc(c3n2)C(=O)N1 [WX004A]")
7.41
>>> experimental_value("C[C@H]1CNC(=O)c2cnn3ccc(nc23)N2OCC[C@@H]2c2cc(F)cnc2O1 [WX005B]")
7.97
>>> experimental_value("O=C1NC2(CC2)COc2ncc(F)cc2[C@H]2CCON2c2ccn3ncc1c3n2 [WX002A]")
8.44
>>> experimental_value("O=C1NC2(CC2)COc2ccc(F)cc2[C@H]2CCON2c2ccn3ncc1c3n2 (single isomer, unassigned) [WX003A]")
8.44
>>> experimental_value("O=C1N[C@@H]2COC[C@@H]2Oc2ncc(F)cc2[C@H]2CCON2c2ccn3ncc1c3n2 [WX008A]")
8.64
>>> experimental_value("O=C1N[C@@H]2CCC[C@@H]2Oc2ncc(F)cc2[C@H]2CCON2c2ccn3ncc1c3n2 [WX007A]")
8.29
>>> experimental_value("C[C@@H]1COc2ccc(F)cc2[C@H]2CCON2c2ccn3ncc(c3n2)C(=O)N1 [WX017A]")
7.43

---

target entity: Ba/F3 LMNA-NTRK1-G595R stably transfected cell line (Homo sapiens, UniProt P04629, G595R, cells depend on it)
Construct: fused on or other part: P02545 (Prelamin-A/C)
Sequence (P04629 whole entry G595R, the tested form may be a part): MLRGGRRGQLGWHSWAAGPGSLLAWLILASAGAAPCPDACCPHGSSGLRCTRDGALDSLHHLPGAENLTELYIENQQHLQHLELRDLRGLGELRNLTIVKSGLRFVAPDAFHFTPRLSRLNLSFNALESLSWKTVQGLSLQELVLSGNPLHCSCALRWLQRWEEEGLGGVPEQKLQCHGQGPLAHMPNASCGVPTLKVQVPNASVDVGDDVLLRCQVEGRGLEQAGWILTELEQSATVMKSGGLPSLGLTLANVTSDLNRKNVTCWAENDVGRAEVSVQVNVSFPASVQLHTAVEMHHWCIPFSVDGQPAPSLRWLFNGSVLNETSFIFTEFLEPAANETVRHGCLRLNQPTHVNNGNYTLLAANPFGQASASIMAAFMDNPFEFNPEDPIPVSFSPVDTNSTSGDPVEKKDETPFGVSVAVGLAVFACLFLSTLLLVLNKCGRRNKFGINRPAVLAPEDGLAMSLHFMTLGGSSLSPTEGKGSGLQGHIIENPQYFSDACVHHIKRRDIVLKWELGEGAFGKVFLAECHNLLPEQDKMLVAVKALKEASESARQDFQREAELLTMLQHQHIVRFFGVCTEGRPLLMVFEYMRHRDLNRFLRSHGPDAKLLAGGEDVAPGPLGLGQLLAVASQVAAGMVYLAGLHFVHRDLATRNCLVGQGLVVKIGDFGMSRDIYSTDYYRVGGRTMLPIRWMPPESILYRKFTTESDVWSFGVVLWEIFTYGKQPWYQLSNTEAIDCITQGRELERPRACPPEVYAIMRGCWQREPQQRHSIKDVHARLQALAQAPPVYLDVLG
assay summary: Cell proliferation inhibition (CellTiter-Glo)
Format: cell-based
recorded conditions: 72 hours, read-out: The half maximal inhibitory concentration IC50 against cells, Ba/F3 LMNA-NTRK1-G595R
endpoint name: GI50 (nM)

>>> experimental_value("O=C1N[C@@H]2COC[C@@H]2Oc2ncc(F)cc2[C@H]2CCON2c2ccn3ncc1c3n2 [WX008A]")
3.92
>>> experimental_value("O=C1NC2(CC2)COc2ncc(F)cc2[C@H]2CCON2c2ccn3ncc1c3n2 [WX002A]")
6.2
>>> experimental_value("O=C1N[C@@H]2CCC[C@@H]2Oc2ncc(F)cc2[C@H]2CCON2c2ccn3ncc1c3n2 [WX007A]")
12.4
>>> experimental_value("C[C@H]1CNC(=O)c2cnn3ccc(nc23)N2OCC[C@@H]2c2cc(F)cnc2O1 [WX005B]")
9.1

---

Below, each entry is listed alongside its reported GI50.
target entity: BaF3 ETV6-NTRK3-G623R stably transfected cell line (Homo sapiens, UniProt Q16288, G623R, cells depend on it)
Construct: fused on or other part: P41212 (Transcription factor ETV6)
Sequence (Q16288 whole entry G623R, the tested form may be a part): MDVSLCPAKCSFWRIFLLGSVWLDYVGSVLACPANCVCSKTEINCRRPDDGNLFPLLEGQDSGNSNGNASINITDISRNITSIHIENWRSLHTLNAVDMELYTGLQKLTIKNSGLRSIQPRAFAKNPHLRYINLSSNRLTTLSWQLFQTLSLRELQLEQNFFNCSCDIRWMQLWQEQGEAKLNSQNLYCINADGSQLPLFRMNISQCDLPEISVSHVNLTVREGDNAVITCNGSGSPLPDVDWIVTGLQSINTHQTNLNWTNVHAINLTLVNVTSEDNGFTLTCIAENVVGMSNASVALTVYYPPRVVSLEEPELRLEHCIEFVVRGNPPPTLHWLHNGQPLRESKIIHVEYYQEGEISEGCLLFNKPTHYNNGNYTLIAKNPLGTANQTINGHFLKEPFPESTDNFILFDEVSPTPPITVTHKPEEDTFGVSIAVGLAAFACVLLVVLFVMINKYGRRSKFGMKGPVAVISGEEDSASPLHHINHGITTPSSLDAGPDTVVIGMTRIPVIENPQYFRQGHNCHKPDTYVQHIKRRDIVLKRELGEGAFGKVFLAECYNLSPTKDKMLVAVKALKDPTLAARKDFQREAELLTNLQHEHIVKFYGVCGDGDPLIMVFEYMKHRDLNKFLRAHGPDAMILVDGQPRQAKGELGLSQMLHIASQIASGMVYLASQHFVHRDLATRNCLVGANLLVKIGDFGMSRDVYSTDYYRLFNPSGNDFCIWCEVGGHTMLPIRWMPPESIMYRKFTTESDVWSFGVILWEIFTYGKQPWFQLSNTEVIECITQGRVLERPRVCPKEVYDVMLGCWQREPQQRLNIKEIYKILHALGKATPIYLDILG
assay summary: Cell proliferation inhibition (CellTiter-Glo)
Format: cell-based
recorded conditions: 72 hours, read-out: The half maximal inhibitory concentration IC50 against cells, BaF3 ETV6-NTRK3-G623R
endpoint name: GI50 (nM)

>>> experimental_value("C[C@@H]1COc2ncc(F)cc2[C@H]2CCON2c2ccn3ncc(c3n2)C(=O)N1 [WX004A]")
2.1
>>> experimental_value("O=C1NC2(COC2)COc2ncc(F)cc2[C@H]2CCON2c2ccn3ncc1c3n2 [WX006A]")
5.4
>>> experimental_value("C[C@H]1CNC(=O)c2cnn3ccc(nc23)N2OCC[C@@H]2c2cc(F)cnc2O1 [WX005B]")
5.6
>>> experimental_value("O=C1N[C@@H]2COC[C@@H]2Oc2ncc(F)cc2[C@H]2CCON2c2ccn3ncc1c3n2 [WX008A]")
3.49
>>> experimental_value("O=C1NC2(CC2)COc2ncc(F)cc2[C@H]2CCON2c2ccn3ncc1c3n2 [WX002A]")
3.4
>>> experimental_value("O=C1N[C@@H]2CCC[C@@H]2Oc2ncc(F)cc2[C@H]2CCON2c2ccn3ncc1c3n2 [WX007A]")
69.1
>>> experimental_value("O=C1NC2(CC2)COc2ccc(F)cc2[C@H]2CCON2c2ccn3ncc1c3n2 (single isomer, unassigned) [WX003A]")
0.9
>>> experimental_value("O=C1N[C@@H]2COCC[C@@H]2Oc2ncc(F)cc2[C@H]2CCON2c2ccn3ncc1c3n2 [WX010B]")
19.5

---

assay summary: In vivo pharmacokinetic test in mice
Set-up: species or system male CD-1 mice
recorded conditions: male, CD-1, mouse, plasma, PO dose of 10 mL/kg vs IV 3 mg/kg, read-out: Bioavailability F %
Below, each entry is listed alongside its reported bioavailability.
endpoint name: bioavailability (%)

>>> experimental_value("C[C@@H]1COc2ccc(F)cc2[C@H]2CCON2c2ccn3ncc(c3n2)C(=O)N1 [WX017A]")
111
>>> experimental_value("C[C@@H]1COc2ncc(F)cc2[C@H]2CCON2c2ccn3ncc(c3n2)C(=O)N1 [WX004A]")
72
>>> experimental_value("O=C1N[C@@H]2COC[C@@H]2Oc2ncc(F)cc2[C@H]2CCON2c2ccn3ncc1c3n2 [WX008A]")
65
>>> experimental_value("O=C1N[C@@H]2COCC[C@@H]2Oc2ncc(F)cc2[C@H]2CCON2c2ccn3ncc1c3n2 [WX010B]")
107
>>> experimental_value("O=C1NC2(COC2)COc2ncc(F)cc2[C@H]2CCON2c2ccn3ncc1c3n2 [WX006A]")
72
>>> experimental_value("O=C1N[C@@H]2CCC[C@@H]2Oc2ncc(F)cc2[C@H]2CCON2c2ccn3ncc1c3n2 [WX007A]")
76
>>> experimental_value("C[C@H]1CNC(=O)c2cnn3ccc(nc23)N2OCC[C@@H]2c2cc(F)cnc2O1 [WX005B]")
85

---

A set of compounds tested on Ros1 (Homo sapiens, UniProt P08922), with measured IC50:
endpoint name: IC50 (nM)

>>> experimental_value("O=C1NC2(CC2)COc2ncc(F)cc2[C@H]2CCON2c2ccn3ncc1c3n2 [WX002A]")
0.14
>>> experimental_value("C[C@@H]1COc2ccc(F)cc2[C@H]2CCON2c2ccn3ncc(c3n2)C(=O)N1 [WX017A]")
0.82
>>> experimental_value("O=C1N[C@@H]2CCC[C@@H]2Oc2ncc(F)cc2[C@H]2CCON2c2ccn3ncc1c3n2 [WX007A]")
0.13
>>> experimental_value("O=C1NC2(COC2)COc2ncc(F)cc2[C@H]2CCON2c2ccn3ncc1c3n2 [WX006A]")
0.59
>>> experimental_value("O=C1N[C@@H]2COC[C@@H]2Oc2ncc(F)cc2[C@H]2CCON2c2ccn3ncc1c3n2 [WX008A]")
0.16
>>> experimental_value("C[C@H]1CNC(=O)c2cnn3ccc(nc23)N2OCC[C@@H]2c2cc(F)cnc2O1 [WX005B]")
0.35
>>> experimental_value("O=C1NC2(CC2)COc2ccc(F)cc2[C@H]2CCON2c2ccn3ncc1c3n2 (single isomer, unassigned) [WX003A]")
0.15
>>> experimental_value("C[C@H]1CNC(=O)c2cnn3ccc(nc23)N2OCC[C@H]2c2cc(F)cnc2O1 [WX005A]")
531
>>> experimental_value("C[C@@H]1COc2ncc(F)cc2[C@H]2CCON2c2ccn3ncc(c3n2)C(=O)N1 [WX004A]")
0.94

---

assay summary: In vivo pharmacokinetic test in mice
Parameters: species or system male CD-1 mice
recorded conditions: male, CD-1, mouse, plasma, IV dose of 3 mg/kg, read-out: Apparent volume of distribution Vd
Below, each entry is listed alongside its reported Vd.
endpoint name: Vd

>>> experimental_value("O=C1NC2(COC2)COc2ncc(F)cc2[C@H]2CCON2c2ccn3ncc1c3n2 [WX006A]")
"1.01 L/kg"
>>> experimental_value("O=C1N[C@@H]2COCC[C@@H]2Oc2ncc(F)cc2[C@H]2CCON2c2ccn3ncc1c3n2 [WX010B]")
"0.68 L/kg"
>>> experimental_value("O=C1N[C@@H]2COC[C@@H]2Oc2ncc(F)cc2[C@H]2CCON2c2ccn3ncc1c3n2 [WX008A]")
"0.62 L/kg"
